- TEST_SYSTEM: TbPTR1 (Trypanosoma brucei brucei, UniProt O76290)
- Sequence (O76290 1-268): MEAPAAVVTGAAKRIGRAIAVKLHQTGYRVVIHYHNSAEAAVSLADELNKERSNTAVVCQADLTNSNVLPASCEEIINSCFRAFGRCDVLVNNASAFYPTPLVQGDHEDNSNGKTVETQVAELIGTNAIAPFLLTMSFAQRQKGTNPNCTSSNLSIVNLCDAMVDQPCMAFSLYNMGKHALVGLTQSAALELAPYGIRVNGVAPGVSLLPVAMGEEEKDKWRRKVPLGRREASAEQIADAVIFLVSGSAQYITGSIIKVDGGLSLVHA
- MEASUREMENT_DESCRIPTION: Spectrophotometric inhibition assay with recombinant TbPTR1
- Format: biochemical
- TEST_CONTEXT: saturating conditions, nonlinear regression; read-out: TbPTR1 IC50
pIC50: −log10 of the molar value.
READOUT_LABEL: pIC50

C=C1C(=O)OC2C1CC(OC(=O)C(C)C(C)O)C(C)=CCCC1(C)OC21 (stereo not shown) [Compound 3]
4.39

----------
- TEST_SYSTEM: TbDHFR (Trypanosoma brucei brucei, UniProt Q27783)
- Sequence (Q27783 28-238 limits assumed): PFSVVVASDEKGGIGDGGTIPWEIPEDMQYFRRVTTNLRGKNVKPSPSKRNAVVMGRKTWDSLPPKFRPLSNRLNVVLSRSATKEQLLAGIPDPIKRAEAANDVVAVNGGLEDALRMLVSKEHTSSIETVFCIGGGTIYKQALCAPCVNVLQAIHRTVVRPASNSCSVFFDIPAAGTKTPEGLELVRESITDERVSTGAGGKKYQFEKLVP
- MEASUREMENT_DESCRIPTION: Spectrophotometric inhibition assay with recombinant TbDHFR
- Type: biochemical
- TEST_CONTEXT: saturating conditions, nonlinear regression; read-out: TbDHFR IC50
READOUT_LABEL: IC50 (µM)

C=C1C(=O)OC2C1CC(OC(=O)C(C)C(C)O)C(C)=CCCC1(C)OC21 (stereo not shown) [Compound 3]
13.3

----------
EC50 reference
- TEST_SYSTEM: TbPTR1 (Trypanosoma brucei brucei, UniProt O76290)
- MEASUREMENT_DESCRIPTION: Spectrophotometric inhibition assay with recombinant TbPTR1
- TEST_CONTEXT: EC50 reported because complete inhibition not reached (solubility issues); read-out: TbPTR1 EC50 (footnote a in IC50 column)
READOUT_LABEL: EC50

C=C1C(=O)O[C@@H]2/C=C(\CO)CC/C=C(\C)C[C@H](OC(=O)C(=C)[C@H](O)CO)[C@@H]12
21.2 µM
C=C1C(=O)OC2C=C(C)C(OC(C)=O)CC=C(C)CC(OC(=O)C(=CCO)CO)C12 (centres unmarked) [Compound 5, (Z)-eucannabinolide]
31.5 µM

----------
Below, each entry is listed with its recorded inhibition at 50 µM.
- TEST_SYSTEM: TbDHFR (Trypanosoma brucei brucei, UniProt Q27783)
- MEASUREMENT_DESCRIPTION: Spectrophotometric inhibition assay with recombinant TbDHFR
- Assay type: biochemical
- TEST_CONTEXT: 50 µM compound; NADPH 150 µM, DHF 50 µM; read-out: TbDHFR Inhibition at 50 µM (%)
READOUT_LABEL: inhibition at 50 µM (%)

C=C1C(=O)O[C@H]2[C@H]1[C@H](OC(=O)/C(=C/COC(=O)C(O)C(C)C)CO)C[C@]1(C)[C@@H]2[C@H](C)C(=O)C[C@H]1O (stereo partly drawn) [Compound 8]
40.7
C=C1C(=O)OC2C=C(C)C(O)CC=C(C)CC(OC(=O)C(=CCOC(=O)C(O)C(C)C)CO)C12 (stereo not drawn) [Compound 9]
95.9
C=C1C(=O)O[C@@H]2/C=C(\CO)CC/C=C(\C)C[C@H](OC(=O)C(=C)[C@H](O)CO)[C@@H]12 [Compound 1, cnicin]
15.2
C=C1C(=O)OC2C=C(C)C(O)CC=C(C)CC(OC(=O)C(=CCOC(=O)C(O)C(C)CC)CO)C12 (stereo not drawn) [Compound 10]
20.1
C=C1C(=O)O[C@@H]2/C=C(/CO)C3=CC(=O)[C@@](C)(C[C@@H](OC(=O)/C(C)=C\C)[C@@H]12)O3 [Compound 4]
34.9

The reported numbers originate from paper PMC8747069.
